Target: TwinStrep-GST-HDAC10 (Homo sapiens, UniProt Q969S8)
Construct: made in house; host or cells: Sf21 insect cells (baculovirus, pFastBac1)
Sequence (Q969S8 whole entry): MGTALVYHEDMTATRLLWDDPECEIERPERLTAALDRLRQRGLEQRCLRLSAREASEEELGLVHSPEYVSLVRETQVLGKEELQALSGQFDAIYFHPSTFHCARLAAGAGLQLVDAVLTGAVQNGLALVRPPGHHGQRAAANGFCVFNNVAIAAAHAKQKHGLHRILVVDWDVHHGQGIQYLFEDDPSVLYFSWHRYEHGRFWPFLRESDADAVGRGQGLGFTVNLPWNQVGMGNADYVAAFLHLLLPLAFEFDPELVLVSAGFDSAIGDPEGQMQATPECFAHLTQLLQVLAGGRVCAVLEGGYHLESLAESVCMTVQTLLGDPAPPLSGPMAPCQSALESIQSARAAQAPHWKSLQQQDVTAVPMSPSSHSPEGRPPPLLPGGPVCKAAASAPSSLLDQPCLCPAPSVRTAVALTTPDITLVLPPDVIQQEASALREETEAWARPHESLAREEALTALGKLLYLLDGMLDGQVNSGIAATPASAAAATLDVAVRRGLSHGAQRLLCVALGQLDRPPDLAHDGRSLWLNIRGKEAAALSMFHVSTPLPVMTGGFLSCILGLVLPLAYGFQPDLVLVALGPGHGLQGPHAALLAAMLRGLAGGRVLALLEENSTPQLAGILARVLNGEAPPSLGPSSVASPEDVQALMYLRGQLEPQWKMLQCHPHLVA
Test: HDAC10 TR-FRET assay (Tubastatin-AF647-Tracer displacement)
Type: binding
Conditions: TR-FRET, 60 min at rt; read-out: pIC50 HDAC10 FRET (converted)
Cut-off 20 nM on IC50: below means fulfilled, at or above means not fulfilled.

Asked: Regarding CCCN(CCCC(=O)NO)CCC(=O)Nc1ccccc1 , kindly confirm whether its IC50 is beneath 20 nM.
Given back: not fulfilled

Asked: For this compound, is IC50 lower than 20 nM? C[N+](C)(CCCC(=O)[N-]O)CCNC(=O)c1ccccc1
Given back: not fulfilled

Asked: Take the compound CN(CCCC(=O)NO)CCNC(=O)c1ccccc1Br and say whether its IC50 is less than 20 nM.
Given back: fulfilled

Asked: Dear colleague, could you confirm whether IC50 of O=C(CCCN(CCC(=O)Nc1ccccc1)C1CC1)NO falls below 20 nM? Thanks.
Given back: not fulfilled

Asked: Record CN(CCCC(=O)NO)CCNC(=O)c1ccc(O)c2ccccc12 : is its IC50 strictly below 20 nM?
Given back: fulfilled
